Tested on: giant foxtail (Setaria faberii)
Test: Test A postemergence
Assay type: in vivo
Settings: 500 g ai/ha, postemergence; visual injury, 0 to 100 scale (0 no effect, 100 complete control), approx. 10 d
measure: Plant response rating, Foxtail, Giant
// print number alone

Return reported Plant response rating, Foxtail, Giant for target or system giant foxtail (Setaria faberii), item Cc1ccc(C2CNC(=O)C2C(=O)Nc2cccc(F)c2F)cc1C(F)(F)F (centres unmarked) [Compound 642] .
70

GET Plant response rating, Foxtail, Giant where system = giant foxtail (Setaria faberii) and item = Cc1ccc(C2CNC(=O)C2C(=O)Nc2cccc(F)c2F)cc1C(F)(F)F (racemic) [Compound 679]
30

Report Plant response rating, Foxtail, Giant from giant foxtail (Setaria faberii) testing of Cc1ccc(C2CNC(=O)C2C(=O)Nc2ccc(F)c(F)c2F)cc1C(F)(F)F (racemic)
30

Report the value of Plant response rating, Foxtail, Giant obtained on giant foxtail (Setaria faberii) for O=C1NCC(c2ccc(I)cc2)C1C(=O)Nc1ccc(F)cc1F (racemic) .
70

# return Plant response rating, Foxtail, Giant of Cc1cccc(C2CN(C)C(=O)C2C(=O)Nc2cccc(F)c2F)c1 (centres unmarked) (system: giant foxtail (Setaria faberii))
90

Report value: Plant response rating, Foxtail, Giant, system: giant foxtail (Setaria faberii), molecule: CN1CC(c2cc(F)cc(F)c2)C(C(=O)Nc2ccccc2C(F)(F)F)C1=O (centres unmarked)
90

Report Plant response rating, Foxtail, Giant from giant foxtail (Setaria faberii) testing of O=C1NCC(c2cccc(O)c2)C1C(=O)Nc1ccccc1F (racemic)
0

Please respond with reported Plant response rating, Foxtail, Giant (system giant foxtail (Setaria faberii)) for CN1CC(c2cccc(C(F)(F)F)c2)C(C(=O)Nc2ccccc2S(C)(=O)=O)C1=O (centres unmarked) .
90

----------
Hi there, I'd appreciate the recorded pest or weed control at 31 g/ha for every entry that follows.
Tested on: barnyardgrass (Echinochloa crus-galli)
Assay: Test A preemergence
Type: in vivo
Details: Echinochloa crus-galli, pre-emergence, 240 h, Preemergence, 31 g ai/ha; 0 to 100 scale (0 no effect, 100 complete control); read-out: Plant response rating, Barnyardgrass
Hi! Could you send only the number? It should be in %, unit omitted.

For the compound CN1CC[C@H](c2cccc(OC(F)(F)F)c2)[C@@H](C(=O)Nc2cccc(Cl)c2F)C1=O [Compound 810] , report pest or weed control at 31 g/ha.
90

Dear colleague, please send me the reported pest or weed control at 31 g/ha for Cc1cc(F)cc([C@H]2CN(C)C(=O)[C@@H]2C(=O)Nc2ccc(F)c(F)c2F)c1 [Compound 801] when you can.
80

Determine its reported pest or weed control at 31 g/ha: C/C=C/C1CNC(=O)C1C(=O)Nc1cccc(F)c1F (centres unmarked) [Compound 793]
0

Please give measured pest or weed control at 31 g/ha of the following entry: CSc1ccccc1NC(=O)[C@H]1C(=O)N(C2CC2)CC[C@@H]1c1ccc(F)cc1 [Compound 1005]
0

State its pest or weed control at 31 g/ha: CN1C[C@H](c2ccc(C(F)(F)F)cn2)[C@@H](C(=O)Nc2cccc(F)c2F)C1=O [Compound 1052]
30

Identify measured pest or weed control at 31 g/ha corresponding to COCc1ccccc1NC(=O)[C@H]1C(=O)N(C)C[C@@H]1c1cccc(C(F)(F)F)c1 (racemic) [Compound 1060]
90

# return recorded pest or weed control at 31 g/ha for input O=C(Nc1cccc(F)c1F)[C@H]1C(=O)N(OCc2ccccc2)CC[C@@H]1c1cccc(Cl)c1 [Compound 997]
0

Note pest or weed control at 31 g/ha for the compound shown: CC(C)Oc1cc([C@H]2CN(C)C(=O)[C@@H]2C(=O)Nc2cccc(F)c2F)cc(C(F)(F)F)c1 [Compound 972]
70

Please give the documented pest or weed control at 31 g/ha of CSc1ccccc1NC(=O)[C@H]1C(=O)N(C)C[C@@H]1c1cc(C)c(C)c(C)c1 [Compound 798]
20

Retrieve pest or weed control at 31 g/ha measured for CSc1ccccc1NC(=O)[C@H]1C(=O)N(C)C[C@@H]1c1ccc(C(F)F)cc1 [Compound 799] and print it.
0

Give recorded pest or weed control at 31 g/ha. CN1C[C@H](c2ccc(C(F)F)cc2)[C@@H](C(=O)Nc2ccccc2F)C1=O [Compound 803]
70
